Reference source for all entries: the supplement of paper PMC6965134

Experiment: TIMS collisional cross section (CCS, N2) of the lipid ion; higher = larger ion cross section
Conditions: sample type: Liver; ionization mode: positive; one isomer drawn
Measured TIMS collisional cross section by item
Respond with the bare value in Å².

In: Can you look up the measured TIMS collisional cross section of CCCCC/C=C\C/C=C\C/C=C\CCCCC(=O)O[C@H](COC(=O)CCCCCCC/C=C\CCCCCC)COP(=O)(O)OCCN [PE 16:1@_18:3] (ion (formula + adduct): [C39H70NO8P+H] 1+) for me?
Out: 266

Others:
In: Can you look up the measured TIMS collisional cross section of CC/C=C\C/C=C\C/C=C\C/C=C\C/C=C\C/C=C\CCC(=O)OC[C@@H](O)COP(=O)(O)OCCN [LPE 22:6] (ion (formula + adduct): [C27H44NO7P+H] 1+) for me?
Out: 218

In: Can you look up the measured TIMS collisional cross section of CCCCCC/C=C\CCCCCCCC(=O)OC[C@H](CO)OC(=O)CCCCCCC/C=C\CCCCCCCC [DG 16:1_18:1_0:0] (ion (formula + adduct): [C37H68O5+NH4] 1+) for me?
Out: 260

In: Can you look up the measured TIMS collisional cross section of CC/C=C\C/C=C\C/C=C\C/C=C\C/C=C\CCCC(=O)OC[C@@H](COC(=O)CCCCCCCCCCCCCCC)OC(=O)CCCCCCCCCCCCCCC [TG 16:0_16:0_20:5] (ion (formula + adduct): [C55H96O6+Na] 1+) for me?
Out: 314.5

In: Can you look up the measured TIMS collisional cross section of CCCCCC/C=C\CCCCCCCC(=O)O[C@H](COC(=O)CCCCCCCCCCCCCC)COC(=O)CCCCCCCCCCCCCCCC [TG 15:0_16:1_17:0] (ion (formula + adduct): [C51H96O6+NH4] 1+) for me?
Out: 312.5

---

Experiment: TIMS collisional cross section (CCS, N2) of the lipid ion; higher = larger ion cross section
Settings: sample type: plasma; ionization mode: positive; one isomer drawn
quantity.measured: TIMS collisional cross section (Å²)
Respond with the bare value in Å².

In: Can you look up the measured TIMS collisional cross section of CC/C=C\C/C=C\C/C=C\C/C=C\C/C=C\CCCC(=O)O[C@H](COC(=O)CCCC/C=C\C/C=C\C/C=C\CCCCC)COP(=O)([O-])OCC[N+](C)(C)C [PC 18:3_20:5] (ion (formula + adduct): [C46H76NO8P+H] 1+) for me?
Out: 288.2

In: Can you look up the measured TIMS collisional cross section of CCCCCCCC/C=C\CCCCCCCC(=O)O[C@H](COC(=O)CCCCCCCCCCCCCCC)COP(=O)(O)OCCN [PE 16:0@_18:1] (ion (formula + adduct): [C39H76NO8P+H] 1+) for me?
Out: 275.3

In: Can you look up the measured TIMS collisional cross section of CC/C=C\C/C=C\C/C=C\C/C=C\C/C=C\C/C=C\CCC(=O)O[C@H](COC(=O)CCCCCCCCCCCCC)COP(=O)([O-])OCC[N+](C)(C)C [PC 14:0@_22:6] (ion (formula + adduct): [C44H76NO8P+H] 1+) for me?
Out: 284.8

In: Can you look up the measured TIMS collisional cross section of CCCCCCCC/C=C\CCCCCCCC(=O)OC[C@H](CO)OC(=O)CCCCCCC/C=C\CCCCCCCC [DG 18:1_18:1_0:0] (ion (formula + adduct): [C39H72O5+NH4] 1+) for me?
Out: 265.9

In: Can you look up the measured TIMS collisional cross section of CCCCCCCC/C=C\CCCCCCCC(=O)O[C@H](CO/C=C\CCCCCCCCCCCCCC)COP(=O)(O)OCCN [PE P- 16:0@_18:1] (ion (formula + adduct): [C39H76NO7P+H] 1+) for me?
Out: 274.1

In: Can you look up the measured TIMS collisional cross section of CCCCCCCC/C=C\CCCCCCCC(=O)OC[C@@H](COC(=O)CCCCCCCCCCCCCCC)OC(=O)CCCCCCCCCCCCCCCC [TG 16:0_17:0_18:1] (ion (formula + adduct): [C54H102O6+NH4] 1+) for me?
Out: 321.6

Others:
In: Can you look up the measured TIMS collisional cross section of CCCCCC/C=C\CCCCCCCC(=O)O[C@@H](CO)COC(=O)CCCCCCCCCCCCCCC [DG 16:0_16:1_0:0] (ion (formula + adduct): [C35H66O5+NH4] 1+) for me?
Out: 257

In: Can you look up the measured TIMS collisional cross section of CCCCCCCCCCCCCC(=O)OC[C@@H](COC(=O)CCCCCCCCCCC)OC(=O)CCCCCCCCCCCCC [TG 12:0_14:0_14:0] (ion (formula + adduct): [C43H82O6+NH4] 1+) for me?
Out: 289.1

In: Can you look up the measured TIMS collisional cross section of CC/C=C\C/C=C\C/C=C\C/C=C\CCCCCCC(=O)O[C@H](COCCCCCCCC/C=C\CCCCCC)COP(=O)([O-])OCC[N+](C)(C)C [PC O- 16:1@_20:4] (ion (formula + adduct): [C44H80NO7P+H] 1+) for me?
Out: 287.2
